These entries and their values trace back to patent US11952365B2.

System: SARS-CoV-2-GHB-03021/2020
experiment: microbe, parasite or virus in culture
Assay type: cell-based
conditionsUsed: Severe acute respiratory syndrome coronavirus 2, Vero C1008, 96 h; read-out: VeroE6 + CP (EC50)
readoutType: EC50

Entry under test: O=C1NCC[C@H]1C[C@H](NC(=O)[C@@H]1[C@H]2CCC[C@H]2CN1C(=O)c1cc2c(Cl)cc(-c3ccccc3)cc2[nH]1)C(=O)CO [Compound 120] . Its EC50 was < 1 µM

O=C(NCc1ccccc1)C(=O)C(C[C@@H]1CCNC1=O)NC(=O)[C@@H]1C[C@@H](Oc2ccccc2)CN1C(=O)c1cc2ccccc2[nH]1 (some centres unmarked) [Compound 5] has a reported EC50 of 10 to 100 µM

Form: compound = Cc1ccc2[nH]c(C(=O)N3CCC4(CC4)C[C@H]3C(=O)N[C@@H](C[C@@H]3CCNC3=O)C(=O)C(=O)NC3CC3)cc2c1 [Compound 146] ; EC50 = 1 to 10 µM

The compound identified as CCOC(=O)c1cc(C(=O)N2C[C@@H]3CCC[C@@H]3[C@H]2C(=O)N[C@@H](C[C@@H]2CCNC2=O)C(=O)CO)[nH]c1C [Compound 85] registered its EC50 at 1 to 10 µM

Sample O=C(NCc1ccccc1)C(=O)[C@H](C[C@@H]1CCNC1=O)NC(=O)[C@@H]1C[C@@]2(CN1C(=O)c1cc3ccccc3[nH]1)CC2(F)F [Compound 23] ; EC50 observed: 1 to 10 µM

Record summary for COc1cccc2[nH]c(C(=O)N3C[C@H](C(F)(F)F)C[C@H]3C(=O)N[C@@H](C[C@@H]3CCCNC3=O)C(=O)COCc3ccccc3)cc12 [Compound 45A] : reported EC50 = 1 to 10 µM

The recorded EC50 for COc1cccc2[nH]c(C(=O)N3C[C@]4(C[C@H]3C(=O)NC(C[C@@H]3CCCNC3=O)C(=O)C(=O)NC3CC3)CC4(F)F)cc12 (some centres unmarked) [Compound 38] is 1 to 10 µM

The compound listed as O=C1NCCC[C@H]1C[C@H](NC(=O)[C@@H]1[C@H]2CCC[C@H]2CN1C(=O)c1cc2ccccc2[nH]1)C(O)S(=O)(=O)O (some centres unmarked) [Compound 58] shows EC50 equal to < 1 µM

Per the record, O=C1NCC[C@H]1C[C@H](NC(=O)[C@@H]1[C@H]2CCC[C@H]2CN1C(=O)c1cc2c(OC3CC3)cc(Cl)cc2[nH]1)C(=O)CO [Compound 138] has EC50 of 1 to 10 µM

What the record says about COCCNC(=O)C(=O)[C@H](C[C@@H]1CCNC1=O)NC(=O)[C@@H]1[C@H]2CCC[C@H]2CN1C(=O)c1cc2c(OC)cccc2[nH]1 [Compound 100] : EC50 is 10 to 100 µM

For this compound ( O=C(NC1CC1)C(=O)[C@H](C[C@@H]1CCNC1=O)NC(=O)[C@@H]1CC2(CCN1C(=O)c1cc3cc(F)ccc3[nH]1)CC2 [Compound 147] ), measured EC50 is 10 to 100 µM

Record COc1cc(Cl)cc2[nH]c(C(=O)N3C[C@@H]4CCC[C@@H]4[C@H]3C(=O)N[C@@H](C[C@@H]3CCNC3=O)C(=O)CO)cc12 [Compound 88] , field EC50: < 1 µM

Short answer for COc1cccc2[nH]c(C(=O)N3C[C@@H]4CCC[C@@H]4[C@H]3C(=O)N[C@@H](C[C@@H]3CCNC3=O)C(=O)c3nc4ccccc4s3)cc12 [Compound 50] : EC50 was 1 to 10 µM

CNc1cccc2[nH]c(C(=O)N3C[C@@H]4CCC[C@@H]4[C@H]3C(=O)N[C@@H](C[C@@H]3CCNC3=O)C(=O)CO)cc12 [Compound 153] yielded EC50 of 10 to 100 µM

GET /value?item= O=C1NCC[C@H]1C[C@H](NC(=O)[C@@H]1[C@H]2CCC[C@H]2CN1C(=O)c1cc2c(OC(F)(F)F)cccc2[nH]1)C(=O)CO [Compound 64] &field=EC50 returns < 1 µM

# EC50 of Cn1c(C(=O)N2CCC3(CC3)C[C@H]2C(=O)N[C@@H](C[C@@H]2CCNC2=O)C(=O)C(=O)NC2CC2)cc2ccccc21 [Compound 172] = < 1 µM

# compound O=C(NCc1ccccc1)C(=O)[C@H](C[C@@H]1CCNC1=O)NC(=O)[C@@H]1[C@H]2CCC[C@H]2CN1C(=O)c1nc2ccccc2[nH]1 [Compound 35] ; its EC50 = 10 to 100 µM

Looking up COc1cccc2[nH]c(C(=O)N3C[C@]4(C[C@H]3C(=O)N[C@@H](C[C@@H]3CCCNC3=O)C(=O)COCc3ccccc3)CC4(F)F)cc12 [Compound 47A] , I found its EC50 recorded as 1 to 10 µM

Reported EC50 for O=C(NC1CC1)C(=O)C(CC1CC2(CC2)NC1=O)NC(=O)[C@@H]1[C@H]2CCC[C@H]2CN1C(=O)c1cc2c(Cl)cc(Cl)cc2[nH]1 (single isomer, unassigned) [Compound 116A] was 1 to 10 µM

Note to self: EC50 recorded for COc1cccc2[nH]c(C(=O)N3CCc4ccccc4[C@H]3C(=O)N[C@@H](C[C@@H]3CCNC3=O)C(=O)C(=O)NC3CC3)cc12 [Compound 102] was 1 to 10 µM

Record summary for COc1cccc2[nH]c(C(=O)N3C[C@@H]4CCC[C@@H]4[C@H]3C(=O)N[C@@H](C[C@@H]3CCNC3=O)C(=O)c3cnc[nH]3)cc12 [Compound 74] : reported EC50 = 10 to 100 µM

So, COc1cccc2[nH]c(C(=O)N3C[C@@H]4CCC[C@@H]4[C@H]3C(=O)N[C@@H](CC3CC(C)(C)NC3=O)C(=O)COCc3ccccc3)cc12 (relative stereo) [Compound 70A_1] ? Its EC50 was 1 to 10 µM

CSc1cccc2[nH]c(C(=O)N3C[C@@H]4CCC[C@@H]4[C@H]3C(=O)N[C@@H](C[C@@H]3CCNC3=O)C(=O)CO)cc12 [Compound 154] yielded EC50 of 1 to 10 µM
